# PROTOCOL: Metabolic stability in mouse liver microsomes
# Assay type: in vitro ADME
VALUE_TYPE: Metabolic Stability Study M = mouse

What measured Metabolic Stability Study M = mouse goes with COc1cc(S(=O)(=O)Cc2ccc3c(c2)CN(C)C3)ccc1NC(=O)NC(C)c1cccc(Cl)c1Cl (stereo not drawn) ?
82.1 µL/min/mg

---

# PROTOCOL: Metabolic stability in mouse liver microsomes
# Assay type: in vitro ADME
VALUE_TYPE: Metabolic Stability Study M = mouse (µL/min/mg)
Just the number please, in µL/min/mg, no unit attached.

I am curious: what Metabolic Stability Study M = mouse value has been reported for C[C@H](NC(=O)Nc1ccc(S(=O)(=O)Nc2ccc(CCO)cc2)cc1)c1cccc(Cl)c1Cl ?
100.8

Fill blank: measured Metabolic Stability Study M = mouse of the compound CC(NC(=O)Nc1ccc(S(=O)(=O)Nc2ccc3c(c2)CCN(C)C3)cc1)c1ccccc1Cl (stereo not shown) is ____.
97.9

Entry source: patent US10501479B2
